- tested.target: hGLP-1R (Homo sapiens, UniProt P43220)
- Sequence (P43220 24-463): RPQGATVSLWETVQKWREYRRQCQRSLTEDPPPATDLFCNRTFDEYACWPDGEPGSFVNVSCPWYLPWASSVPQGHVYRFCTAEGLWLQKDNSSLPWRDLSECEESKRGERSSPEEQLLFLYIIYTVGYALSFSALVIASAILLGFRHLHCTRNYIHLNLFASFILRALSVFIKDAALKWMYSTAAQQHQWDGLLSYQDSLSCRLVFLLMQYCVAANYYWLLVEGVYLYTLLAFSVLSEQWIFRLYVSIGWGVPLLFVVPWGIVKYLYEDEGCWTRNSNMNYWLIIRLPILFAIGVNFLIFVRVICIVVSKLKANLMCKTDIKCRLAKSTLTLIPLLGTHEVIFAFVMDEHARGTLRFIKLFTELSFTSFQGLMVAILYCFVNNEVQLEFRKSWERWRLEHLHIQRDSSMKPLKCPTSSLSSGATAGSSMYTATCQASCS
- method.description: cell-based or functional assay
Starred links: 1 amine or outer side, 2 acyl side, 3 side chain; linkers in the order of their positions; H or OH if unused. Non-standard residues stand in square brackets, D forms with d. Groups on a side chain read outwards from the residue. No end group written: not given here. *: point of attachment. C20 diacid = O=C(O)CCCCCCCCCCCCCCCCCCC(=O)*; γGlu = O=C(O)[C@H](CCC(=O)[*:2])N[*:1]; αMeL = CC(C)C[C@](C)(N)C(=O)O; AEEA = NCCOCCOCC(=O)O; Aib = CC(C)(N)C(=O)O
readout.type: log10 cAMP Rel EC50 (in the presence of 1% HSA) (log10 of the value in nM)
Please note: log10 values; quantity cAMP Rel EC50 (in the presence of 1% HSA); unit nM.

Consider the following illustrative entries.
YXQGTXTSDXXIXLDXKAQXEFIEXLIEGGPPSXXPPPXGS (non-natural residues, acylated Lys (AEEA-γGlu-C18 diacid), C-terminal amide; synthetic construct; SITE 2: note = 2-Aminoisobutyric Acid; SITE 6: note = alpha-methyl-2-fluoro-L-phenylalanine; SITE 10: note = 3-(4-Pyridyl)-L-alanine; SITE 11: note = alpha-methyl-L-serine; SITE 13: note = alpha-methyl-leucine; SITE 16: note = L-ornithine; SITE 17: note = Lysine is chemically mo) [Example 1189] :: 1.66
Y[Aib]QGTFTSDFSK[αMeL]LDKK([AEEA-γGlu-C20 diacid])AQQAFIEYLLA[Aib]GPSSGEPPPSEG-NH2 [Example 19] :: 3.12
YXQGTFTSDFSKXLDKKAQXAFIEYLLEXGPSSGAPPPGGS (synthetic construct; SITE 2: note = 2-Aminoisobutyric Acid; SITE 13: note = alpha-methyl-leucine; SITE 17: note = Lysine is chemically modified through conjugation of the epsilon-amino group of the Lysine side chain with (2-[2-(2-Amino-ethoxy)-ethoxy]-acetyl)-(gamma-Glu)-CO-(CH2) 18-CO2H; SITE 20: n) [Example 43] :: 2.73
YXQGTXTSDXSIXLDKKAQXAFIEYLTEGGPSSGEPPPSGSEE (non-natural residues; acylated Lys; C-terminal amide; synthetic construct; SITE 2: note = 2-Aminoisobutyric Acid; SITE 6: note = alpha-methyl-2-fluoro-L-phenylalanine; SITE 10: note = 3-(4-Pyridyl)-L-alanine; SITE 13: note = alpha-methyl-leucine; SITE 17: note = Lysine is chemically modified through conjugation of the epsilon-amino group of the Lysine) [Example 633] :: 1.61
YXQGTXTSDXXILLDXKAQXXFIEYLIEGGPSSGEPPPEGSEE (non-natural residues; lysine acylated with C18 diacid; C-terminal amide; synthetic construct; SITE 2: note = 2-Aminoisobutyric Acid; SITE 6: note = alpha-methyl-2-fluoro-L-phenylalanine; SITE 10: note = 3-(4-Pyridyl)-L-alanine; SITE 11: note = alpha-methyl-L-serine; SITE 16: note = L-ornithine; SITE 17: note = Lysine is chemically modified through conjugation of the epsi) [Example 603] :: 1.69
YXQGTXTSDXXIXLDXKAQXEFIEXLVEGGPSSGAPPPEGE (not fully specified; non-natural residues; AEEA-γGlu-C18 diacid acyl; C-terminal amide; synthetic construct; SITE 2: note = 2-Aminoisobutyric Acid; SITE 6: note = alpha-methyl-2-fluoro-L-phenylalanine …; SITE 10: note = 3-(4-Pyridyl)-L-alanine; SITE 11: note = alpha-methyl-L-serine; SITE 13: note = alpha-methyl-leucine; SITE 16: note = L-ornithine; SITE 17: note = Lysine is chemically mo) [Example 1158] :: 1.67
YXQGTFTSDFSRXLDKKAQXAFIEYLLEXGPSSGAPPPGGS (synthetic construct; SITE 2: note = 2-Aminoisobutyric Acid; SITE 13: note = alpha-methyl-leucine; SITE 17: note = Lysine is chemically modified through conjugation of the epsilon-amino group of the Lysine side chain with (2-[2-(2-Amino-ethoxy)-ethoxy]-acetyl)-(gamma-Glu)-CO-(CH2) 18-CO2H; SITE 20: n) [Example 42] :: 2.85
YXQGTFTSDFSKXLDKKAQXAFIEYLLAGGPSSGAPPPSGG (synthetic construct; SITE 2: note = 2-Aminoisobutyric Acid; SITE 13: note = alpha-methyl-leucine; SITE 17: note = Lysine is chemically modified through conjugation of the epsilon-amino group of the Lysine side chain with (2-[2-(2-Amino-ethoxy)-ethoxy]-acetyl)-(gamma-Glu)-CO-(CH2) 18-CO2H; SITE 20: n) [Example 12] :: 2.33

Take each entry in turn and give its log10 cAMP Rel EC50 (in the presence of 1% HSA).
1. YXQGTFTSDFSKXLDKKAQXAFIEYLLEGGPSSGEPPPTEG (synthetic construct; SITE 2: note = 2-Aminoisobutyric Acid; SITE 13: note = alpha-methyl-leucine; SITE 17: note = Lysine is chemically modified through conjugation of the epsilon-amino group of the Lysine side chain with (2-[2-(2-Amino-ethoxy)-ethoxy]-acetyl)-(gamma-Glu)-CO-(CH2) 18-CO2H; SITE 20: n) [Example 36]
2. YXQGTXTSDXXIXLDXKAQXEFIEXLVEGGPSSGAPPPTGE (not fully specified; non-natural residues; lipidated Lys; C-terminal amide; synthetic construct; SITE 2: note = 2-Aminoisobutyric Acid; SITE 6: note = alpha-methyl-2-fluoro-L-phenylalanine; SITE 10: note = 3-(4-Pyridyl)-L-alanine; SITE 11: note = alpha-methyl-L-serine; SITE 13: note = alpha-methyl-leucine; SITE 16: note = L-ornithine; SITE 17: note = Lysine is chemically mo) [Example 1152]
3. YXQGTXTSDXSIXLDKKAQXAFIEYLQEGGPSSGEPPPSGSEE (non-natural residues; Lys acylated C18 diacid via γGlu2; C-term amide; synthetic construct; SITE 2: note = 2-Aminoisobutyric Acid; SITE 6: note = alpha-methyl-2-fluoro-L-phenylalanine; SITE 10: note = 3-(4-Pyridyl)-L-alanine; SITE 13: note = alpha-methyl-leucine; SITE 17: note = Lysine is chemically modified through conjugation of the epsilon-amino group of the Lysine) [Example 634]
4. YXQGTFTSDFSKXLDKKAQXAFIEYLLAGGPSSGEPPPSSE (synthetic construct; SITE 2: note = 2-Aminoisobutyric Acid; SITE 13: note = alpha-methyl-leucine; SITE 17: note = Lysine is chemically modified through conjugation of the epsilon-amino group of the Lysine side chain with (2-[2-(2-Amino-ethoxy)-ethoxy]-acetyl)2-(gamma-Glu)-CO-(CH2 )18-CO2H; SITE 20:) [Example 5]

1. 3.13
2. 1.64
3. 1.54
4. 2.83

Required: log10 cAMP Rel EC50 (in the presence of 1% HSA), one value per binder below.
1. YXQGTXTSDXSILLDKKAQXAFIEYLEEGGPSSGAPPPSGSEE (acylated Lys (γGlu)2-C18 diacid; non-natural residues; C-terminal amide; synthetic construct; SITE 2: note = 2-Aminoisobutyric Acid; SITE 6: note = alpha-methyl-2-fluoro-L-phenylalanine; SITE 10: note = 3-(4-Pyridyl)-L-alanine; SITE 17: note = Lysine is chemically modified through conjugation of the epsilon-amino group of the Lysine side chain with (gamma-Glu)2-CO-(CH2)1) [Example 610]
2. YXQGTFTSDFSXXLDKKAQXAFIEWLLEGGHSSGAPPPGGE (Aib, Orn, alpha-methyl-Leu, lipidated Lys, C-terminal amide; synthetic construct; SITE 2: note = 2-Aminoisobutyric Acid; SITE 12: note = L-ornithine; SITE 13: note = alpha-methyl-leucine; SITE 17: note = Lysine is chemically modified through conjugation of the epsilon-amino group of the Lysine side chain with (2-[2-(2-Amino-ethoxy)-ethoxy]-acetyl)-(gamma-Glu)) [Example 273]
3. YXQGTXTSDXXIXLDXKAQXEFIEXLIEGGPPSXXPPPXSE (non-natural residues; acylated Lys; C-terminal amide; synthetic construct; SITE 2: note = 2-Aminoisobutyric Acid; SITE 6: note = alpha-methyl-2-fluoro-L-phenylalanine; SITE 10: note = 3-(4-Pyridyl)-L-alanine; SITE 11: note = alpha-methyl-L-serine; SITE 13: note = alpha-methyl-leucine; SITE 16: note = L-ornithine; SITE 17: note = Lysine is chemically mo) [Example 1196]
4. YXQGTFTSDFSXXLDKKAQXAFIEYLLEGGPSSGAPPPSGT (Aib, Orn, αMeL; (γGlu)2-C18 diacid on Lys; C-terminal amide; synthetic construct; SITE 2: note = 2-Aminoisobutyric Acid; SITE 12: note = L-ornithine; SITE 13: note = alpha-methyl-leucine; SITE 17: note = Lysine is chemically modified through conjugation of the epsilon-amino group of the Lysine side chain with (gamma-Glu)2-CO-(CH2)16-CO2H; SITE 20: note = 2-Am) [Example 260]

1. 2.11
2. 2.71
3. 1.66
4. 2.20

Hello, I would appreciate it if you could give log10 cAMP Rel EC50 (in the presence of 1% HSA) for each entry below.
1. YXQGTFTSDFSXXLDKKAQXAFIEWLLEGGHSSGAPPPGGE (Aib, Orn, αMeL; lipidated Lys; C-terminal amide; synthetic construct; SITE 2: note = 2-Aminoisobutyric Acid; SITE 12: note = L-ornithine; SITE 13: note = alpha-methyl-leucine; SITE 17: note = Lysine is chemically modified through conjugation of the epsilon-amino group of the Lysine side chain with (2-[2-(2-Amino-ethoxy)-ethoxy]-acetyl)2-(gamma-Glu)) [Example 271]
2. YXQGTXTSDXXIXLDXKAQXEFIEXLIEGGPSSGAPPPSGSE (acylated Lys (γGlu)2-C18 diacid; non-natural residues; C-terminal amide; synthetic construct; SITE 2: note = 2-Aminoisobutyric Acid; SITE 6: note = alpha-methyl-L-phenylalanine; SITE 10: note = 3-(4-Pyridyl)-L-alanine; SITE 11: note = alpha-methyl-L-serine; SITE 13: note = alpha-methyl-leucine; SITE 16: note = L-ornithine; SITE 17: note = Lysine is chemically modified th) [Example 1172]
3. YXQGTFTSDXSKXLDKKAQXAFIEYLIEAGESSGEPPPSGS (non-natural residues, AEEA-γGlu-diacid acylated Lys, C-terminal amide; synthetic construct; SITE 2: note = 2-Aminoisobutyric Acid; SITE 10: note = 3-(4-Pyridyl)-L-alanine; SITE 13: note = alpha-methyl-leucine; SITE 17: note = Lysine is chemically modified through conjugation of the epsilon-amino group of the Lysine side chain with (2-[2-(2-Amino-ethoxy)-ethoxy]-acetyl)) [Example 284]
4. YXQGTXTSDXSILLDKKAQXAFIEYLEEGGPSSGAPPPSGEGE (non-natural residues; Lys acylated (γGlu)2-C18 diacid; C-terminal amide; synthetic construct; SITE 2: note = 2-Aminoisobutyric Acid; SITE 6: note = alpha-methyl-2-fluoro-L-phenylalanine; SITE 10: note = 3-(4-Pyridyl)-L-alanine; SITE 17: note = Lysine is chemically modified through conjugation of the epsilon-amino group of the Lysine side chain with (gamma-Glu)2-CO-(CH2)1) [Example 621]
5. YXQGTFTSDFSXXLDKKAQXAFIEYLLEAGPSSGXPPPSGX (acylated lysine (AEEA)2-γGlu-C18 diacid; non-natural residues; C-terminal amide; synthetic construct; SITE 2: note = 2-Aminoisobutyric Acid; SITE 12: note = L-ornithine; SITE 13: note = alpha-methyl-leucine; SITE 17: note = Lysine is chemically modified through conjugation of the epsilon-amino group of the Lysine side chain with (2-[2-(2-Amino-ethoxy)-ethoxy]-acetyl)2-(gamma-Glu)) [Example 258]
6. YXQGTXTSDXSILLDKKAQXAFIEYLEEGGPSSGAPPPSGSGE (non-natural residues; lysine acylated with (γ-Glu)2-C18 diacid; C-terminal amide; synthetic construct; SITE 2: note = 2-Aminoisobutyric Acid; SITE 6: note = alpha-methyl-2-fluoro-L-phenylalanine; SITE 10: note = 3-(4-Pyridyl)-L-alanine; SITE 17: note = Lysine is chemically modified through conjugation of the epsilon-amino group of the Lysine side chain with (gamma-Glu)2-CO-(CH2)1) [Example 618]
7. YXQGTXTSDXXIXLDXKAQXEFIEXLIEGGPSSGAPPPSGGGE (non-natural residues; lipidated Lys (γGlu)2-C18 diacid; C-term amide; synthetic construct; SITE 2: note = 2-Aminoisobutyric Acid; SITE 6: note = alpha-methyl-L-phenylalanine; SITE 10: note = 3-(4-Pyridyl)-L-alanine; SITE 11: note = alpha-methyl-L-serine; SITE 13: note = alpha-methyl-leucine; SITE 16: note = L-ornithine; SITE 17: note = Lysine is chemically modified th) [Example 1174]
8. YXQGTXTSDXXIXLDXKAQXEFIEXLIEGGPSSGEPPPSGSE (non-natural residues; acylated Lys; C-terminal amide; synthetic construct; SITE 2: note = 2-Aminoisobutyric Acid; SITE 6: note = alpha-methyl-2-fluoro-L-phenylalanine; SITE 10: note = 3-(4-Pyridyl)-L-alanine; SITE 11: note = alpha-methyl-L-serine; SITE 13: note = alpha-methyl-leucine; SITE 16: note = L-ornithine; SITE 17: note = Lysine is chemically mo) [Example 1179]

1. 2.95
2. 1.66
3. 2.43
4. 2.05
5. 2.69
6. 1.95
7. 1.78
8. 1.58
